pKi: −log10 of the molar value.
Below are compounds with their pKi as measured on Human immunodeficiency virus type 1 protease (Human immunodeficiency virus 1).

- COMPOUND: "CCC(C)[C@H](NC(=O)[C@H](C(C)C)[C@@H](O)[C@H](O)C(CC1CCCCC1)NC(=O)c1ccccc1OCSc1ccccc1)C(=O)NCc1nc2ccccc2[nH]1 (stereo not given in full)"
  RELATION OPERATOR: "="
  pKi: 8.30
- COMPOUND: "CC(C)[C@@H](C(=O)N[C@H]1c2ccccc2CC1O)[C@@H](O)[C@H](O)[C@H](CC1CCCCC1)NC(=O)c1ccccc1 (stereo not given in full)"
  RELATION OPERATOR: "="
  pKi: 7.80
- COMPOUND: "CCC(C)[C@H](NC(=O)[C@H](C(C)C)[C@@H](O)[C@H](O)C(CC1CCCCC1)NC(=O)c1ccccc1OCCOCCOCCOC)C(=O)NCc1nc2ccccc2[nH]1 (stereo not given in full)"
  RELATION OPERATOR: "="
  pKi: 8.00
- COMPOUND: "COCCOCCOCCOc1ccccc1C(=O)NC(CC1CCCCC1)[C@@H](O)[C@H](O)[C@H](C(=O)N[C@H]1c2ccccc2CC1O)C(C)C (stereo not given in full)"
  RELATION OPERATOR: "<"
  pKi: 6.70
- COMPOUND: "CCC(C)[C@H](NC(=O)[C@H](C(C)C)[C@@H](O)[C@H](O)C(CC1CCCCC1)NC(=O)c1ncccc1OCSc1ccccc1)C(=O)NCc1nc2ccccc2[nH]1 (stereo not given in full)"
  RELATION OPERATOR: "="
  pKi: 6.85
- COMPOUND: "CCC(C)[C@H](NC(=O)[C@H](C(C)C)[C@@H](O)[C@H](O)C(CC1CCCCC1)NC(=O)C(Cc1c[nH]cn1)NC(=O)COc1cccc2ccccc12)C(=O)NCc1ccccn1 (stereo not given in full)"
  RELATION OPERATOR: ">"
  pKi: 9.00
- COMPOUND: "CC[C@H](C)[C@H](NC(=O)[C@H](C(C)C)[C@@H](O)[C@H](O)[C@H](CC1CCCCC1)NC(=O)c1ccccc1)C(=O)NCc1nc2ccccc2[nH]1"
  RELATION OPERATOR: "="
  pKi: 7.44
- COMPOUND: "CCC(C)[C@H](NC(=O)[C@H](C(C)C)[C@@H](O)[C@H](O)[C@H](CC1CCCCC1)NC(=O)c1ccccc1OCCOc1ccccc1)C(=O)NCc1nc2ccccc2[nH]1 (stereo not given in full)"
  RELATION OPERATOR: "="
  pKi: 8.10
- COMPOUND: "CC[C@H](C)[C@H](NC(=O)[C@H](C(C)C)[C@@H](O)[C@H](O)[C@H](CC1CCCCC1)NC(=O)C1CCCCC1)C(=O)NCc1ccccn1"
  RELATION OPERATOR: "="
  pKi: 7.66
- COMPOUND: "CCC(C)[C@H](NC(=O)[C@H](C(C)C)[C@@H](O)[C@H](O)[C@H](CC1CCCCC1)NC(=O)c1ccc(C)cc1OCCOc1ccccc1)C(=O)NCc1nc2ccccc2[nH]1 (stereo not given in full)"
  RELATION OPERATOR: "="
  pKi: 7.32
- COMPOUND: "CC(C)[C@@H](C(=O)N[C@H]1c2ccccc2CC1O)[C@@H](O)[C@H](O)C(CC1CCCCC1)NC(=O)c1ccccc1OCSc1ccccc1 (stereo not given in full)"
  RELATION OPERATOR: "="
  pKi: 6.70
- COMPOUND: "CC(C)[C@@H](C(=O)N[C@H]1c2ccccc2CC1O)[C@@H](O)[C@H](O)[C@H](CC1CCCCC1)NC(=O)c1ccccc1OCCOc1ccccc1 (stereo not given in full)"
  RELATION OPERATOR: "<"
  pKi: 6.70
- COMPOUND: "CCC(C)[C@H](NC(=O)[C@H](C(C)C)[C@@H](O)[C@H](O)[C@H](CC1CCCCC1)NC(=O)CCOCCOc1ccccc1)C(=O)NCc1nc2ccccc2[nH]1 (stereo not given in full)"
  RELATION OPERATOR: "="
  pKi: 8.40
- COMPOUND: "CCC(C)[C@H](NC(=O)[C@H](C(C)C)[C@@H](O)[C@H](O)[C@H](CC1CCCCC1)NC(=O)c1ccccc1OCCOCCOC)C(=O)NCc1nc2ccccc2[nH]1 (stereo not given in full)"
  RELATION OPERATOR: "="
  pKi: 8.30
- COMPOUND: "CCC(C)[C@H](NC(=O)[C@H](C(C)C)[C@@H](O)[C@H](O)[C@H](CC1CCCCC1)NC(=O)c1ncccc1OCCOCCOC)C(=O)NCc1nc2ccccc2[nH]1 (stereo not given in full)"
  RELATION OPERATOR: "="
  pKi: 7.00
- COMPOUND: "CC(C)[C@@H](C(=O)N[C@H]1c2ccccc2CC1O)[C@@H](O)[C@H](O)C(CC1CCCCC1)NC(=O)c1ncccc1OCSc1ccccc1 (stereo not given in full)"
  RELATION OPERATOR: "="
  pKi: 6.22
- COMPOUND: "COCCOCCOc1cccnc1C(=O)N[C@@H](CC1CCCCC1)[C@@H](O)[C@H](O)[C@H](C(=O)N[C@H]1c2ccccc2CC1O)C(C)C (stereo not given in full)"
  RELATION OPERATOR: "<"
  pKi: 6.70
- COMPOUND: "CCC(C)[C@H](NC(=O)[C@H](C(C)C)[C@@H](O)[C@H](O)C(CC1CCCCC1)NC(=O)c1ncccc1OCCOCCOCCOC)C(=O)NCc1nc2ccccc2[nH]1 (stereo not given in full)"
  RELATION OPERATOR: "="
  pKi: 7.00
- COMPOUND: "COCCOCCOCCOc1cccnc1C(=O)NC(CC1CCCCC1)[C@@H](O)[C@H](O)[C@H](C(=O)N[C@H]1c2ccccc2CC1O)C(C)C (stereo not given in full)"
  RELATION OPERATOR: "<"
  pKi: 6.70
- COMPOUND: "COCCOCCOc1ccccc1C(=O)N[C@@H](CC1CCCCC1)[C@@H](O)[C@H](O)[C@H](C(=O)N[C@H]1c2ccccc2CC1O)C(C)C (stereo not given in full)"
  RELATION OPERATOR: "="
  pKi: 6.70
